DC50 overview
- SYSTEM: HiBiT-BRM fusion protein in stable HeLa cell line (Homo sapiens, UniProt P51531)
- Construct: expressed in transfected cells
- Sequence (P51531 whole entry, the tested form may be a part): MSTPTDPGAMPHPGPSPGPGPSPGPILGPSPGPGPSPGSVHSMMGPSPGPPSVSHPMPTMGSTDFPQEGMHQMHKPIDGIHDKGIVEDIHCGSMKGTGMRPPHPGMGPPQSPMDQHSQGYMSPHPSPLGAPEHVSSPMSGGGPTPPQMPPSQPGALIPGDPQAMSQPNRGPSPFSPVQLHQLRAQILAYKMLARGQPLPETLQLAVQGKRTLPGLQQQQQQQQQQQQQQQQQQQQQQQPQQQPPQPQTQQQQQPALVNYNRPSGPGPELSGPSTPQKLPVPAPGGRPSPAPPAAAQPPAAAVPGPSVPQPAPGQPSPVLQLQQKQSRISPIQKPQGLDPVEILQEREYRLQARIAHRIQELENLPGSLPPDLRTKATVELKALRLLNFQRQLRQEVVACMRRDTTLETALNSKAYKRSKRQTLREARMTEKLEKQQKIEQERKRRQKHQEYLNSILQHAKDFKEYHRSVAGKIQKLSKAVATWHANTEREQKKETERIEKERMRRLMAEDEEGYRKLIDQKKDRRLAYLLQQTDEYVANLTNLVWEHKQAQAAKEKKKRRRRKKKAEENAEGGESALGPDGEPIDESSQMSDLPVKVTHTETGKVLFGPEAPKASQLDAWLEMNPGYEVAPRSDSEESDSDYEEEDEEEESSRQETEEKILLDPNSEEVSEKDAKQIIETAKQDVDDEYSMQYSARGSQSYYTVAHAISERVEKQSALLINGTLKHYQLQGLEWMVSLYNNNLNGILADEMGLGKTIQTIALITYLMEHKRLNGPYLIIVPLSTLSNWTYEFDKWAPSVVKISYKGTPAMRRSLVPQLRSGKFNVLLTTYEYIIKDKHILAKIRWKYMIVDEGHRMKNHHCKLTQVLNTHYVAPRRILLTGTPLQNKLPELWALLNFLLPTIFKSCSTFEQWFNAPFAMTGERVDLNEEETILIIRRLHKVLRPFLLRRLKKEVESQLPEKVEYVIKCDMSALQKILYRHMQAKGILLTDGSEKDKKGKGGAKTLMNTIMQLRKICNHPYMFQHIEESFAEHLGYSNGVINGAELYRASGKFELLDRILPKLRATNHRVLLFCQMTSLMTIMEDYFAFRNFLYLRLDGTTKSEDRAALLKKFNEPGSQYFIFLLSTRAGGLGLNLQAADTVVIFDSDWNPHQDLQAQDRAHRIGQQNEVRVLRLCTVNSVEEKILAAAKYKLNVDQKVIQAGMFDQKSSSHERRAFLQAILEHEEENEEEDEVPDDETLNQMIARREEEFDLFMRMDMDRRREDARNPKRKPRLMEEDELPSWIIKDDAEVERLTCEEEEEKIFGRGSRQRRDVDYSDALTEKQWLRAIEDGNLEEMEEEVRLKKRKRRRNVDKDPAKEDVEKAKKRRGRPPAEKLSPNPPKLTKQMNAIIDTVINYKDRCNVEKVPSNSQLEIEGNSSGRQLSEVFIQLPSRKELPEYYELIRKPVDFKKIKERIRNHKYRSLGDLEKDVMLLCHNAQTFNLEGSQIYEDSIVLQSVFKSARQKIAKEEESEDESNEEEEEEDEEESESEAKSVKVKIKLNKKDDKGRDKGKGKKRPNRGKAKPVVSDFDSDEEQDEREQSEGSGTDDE
- MEASUREMENT NOTES: HiBiT-BRM cell-based degradation assay (Nano-Glo HiBiT Lytic Detection, 24 h)
- Design: scale not given here
- CONDITION LABEL: HeLa HiBiT-BRM cells, read-out: BRM HiBit Degradation IC50

# MOLECULE, DC50
rows = [
    ("Cc1ncsc1-c1ccc([C@H](C)NC(=O)[C@@H]2C[C@@H](O)CN2C(=O)[C@@H](c2cc(-c3cnc(N4CC(c5cc6cc(-c7ccccc7O)nnc6cc5Cl)C4)nc3)no2)C(C)C)cc1 [Compound 30]", "< 10 nM"),
    ("COc1cc2cc(-c3ccccc3O)nnc2cc1CN1CC[C@H](N2CCN(c3cc([C@H](C(=O)N4C[C@H](O)C[C@H]4C(=O)N[C@@H](C)c4ccc(-c5scnc5C)cc4)C(C)C)on3)CC2)C(F)(F)C1 [Compound 219]", "< 10 nM"),
    ("Cc1ncsc1-c1ccc([C@H](C)NC(=O)[C@@H]2C[C@@H](O)CN2C(=O)[C@@H](c2cc(N3CCC[C@@H](c4ccc5cc(-c6ccccc6O)nnc5c4)C3)no2)C(C)C)cc1 [Compound 91]", "< 10 nM"),
]

**Query** Please look at this molecule and report its DC50: CC(C)[C@@H](C(=O)N1C[C@H](O)C[C@H]1C(=O)N[C@@H](C)c1ccc(F)cc1)c1cc(N2CC3(C2)CN(c2cc4nnc(-c5ccccc5O)cc4cc2C(F)F)C3)no1 [Compound 236]
**Result** > 10 nM

**Query** Please look at this molecule and report its DC50: Cc1ncsc1-c1ccc([C@H](C)NC(=O)[C@@H]2C[C@@H](O)CN2C(=O)[C@@H](c2cc(-c3cnc(N4CC(c5ccc6cc(-c7ccccc7O)nnc6c5)C4)nc3)no2)C(C)C)cc1 [Compound 11]
**Result** < 10 nM

* * *

DC50 overview
- SYSTEM: HiBit-BRG1 fusion protein in stable HeLa cell line expressing HiBit-BRG1 and LgBit (Homo sapiens, UniProt P51532)
- Construct: expressed in transfected cells
- Sequence (P51532 whole entry, the tested form may be a part): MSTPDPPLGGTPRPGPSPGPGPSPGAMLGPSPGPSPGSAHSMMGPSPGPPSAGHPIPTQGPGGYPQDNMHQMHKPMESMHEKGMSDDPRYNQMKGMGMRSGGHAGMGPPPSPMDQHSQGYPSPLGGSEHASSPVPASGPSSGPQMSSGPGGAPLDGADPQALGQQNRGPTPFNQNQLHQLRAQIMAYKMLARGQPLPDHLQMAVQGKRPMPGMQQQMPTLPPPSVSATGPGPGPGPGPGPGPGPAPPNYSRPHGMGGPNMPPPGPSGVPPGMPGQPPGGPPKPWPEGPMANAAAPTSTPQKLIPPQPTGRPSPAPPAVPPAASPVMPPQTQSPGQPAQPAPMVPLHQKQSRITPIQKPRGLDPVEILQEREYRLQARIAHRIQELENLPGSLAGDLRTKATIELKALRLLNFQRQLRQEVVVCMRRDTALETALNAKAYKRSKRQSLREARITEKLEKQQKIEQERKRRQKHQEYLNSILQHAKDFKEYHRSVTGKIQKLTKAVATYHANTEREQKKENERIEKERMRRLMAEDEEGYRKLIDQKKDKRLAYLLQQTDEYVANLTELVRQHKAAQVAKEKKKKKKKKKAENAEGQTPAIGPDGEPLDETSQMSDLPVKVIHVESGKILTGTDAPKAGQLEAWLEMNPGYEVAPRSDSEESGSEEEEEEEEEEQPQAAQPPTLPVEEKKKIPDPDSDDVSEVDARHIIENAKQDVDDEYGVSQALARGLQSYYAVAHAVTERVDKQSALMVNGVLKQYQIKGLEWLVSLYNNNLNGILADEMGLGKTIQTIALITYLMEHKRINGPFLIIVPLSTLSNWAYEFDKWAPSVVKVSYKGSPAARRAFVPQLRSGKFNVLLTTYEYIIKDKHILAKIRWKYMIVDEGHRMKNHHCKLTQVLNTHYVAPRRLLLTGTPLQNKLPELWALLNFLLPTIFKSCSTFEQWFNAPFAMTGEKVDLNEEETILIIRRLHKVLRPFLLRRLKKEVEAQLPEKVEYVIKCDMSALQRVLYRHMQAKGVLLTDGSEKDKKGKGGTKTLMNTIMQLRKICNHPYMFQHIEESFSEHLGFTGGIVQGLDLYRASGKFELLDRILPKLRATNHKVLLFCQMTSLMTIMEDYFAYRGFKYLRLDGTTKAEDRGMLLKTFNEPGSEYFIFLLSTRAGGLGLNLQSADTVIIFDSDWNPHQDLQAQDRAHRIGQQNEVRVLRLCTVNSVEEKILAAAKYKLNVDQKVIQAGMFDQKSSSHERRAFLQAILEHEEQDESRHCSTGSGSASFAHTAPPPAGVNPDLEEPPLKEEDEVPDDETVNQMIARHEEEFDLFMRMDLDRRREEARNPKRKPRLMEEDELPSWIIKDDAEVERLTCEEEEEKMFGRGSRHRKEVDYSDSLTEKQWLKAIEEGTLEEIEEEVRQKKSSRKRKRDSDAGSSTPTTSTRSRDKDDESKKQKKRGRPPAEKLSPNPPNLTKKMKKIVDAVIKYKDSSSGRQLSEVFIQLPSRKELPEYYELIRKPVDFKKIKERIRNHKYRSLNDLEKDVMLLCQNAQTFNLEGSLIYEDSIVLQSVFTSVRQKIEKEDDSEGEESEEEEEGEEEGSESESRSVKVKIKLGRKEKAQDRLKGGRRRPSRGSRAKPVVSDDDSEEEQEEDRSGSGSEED
- MEASUREMENT NOTES: HiBiT-BRG1 cell-based degradation assay (Nano-Glo HiBiT, 24 h)
- CONDITION LABEL: HeLa HiBit-BRG1/LgBit cells, read-out: BRMG1 HiBit Degradation IC50

Please review the following examples before continuing.
# COMPOUND, DC50
data = [
    ("Cc1ncsc1-c1ccc([C@H](C)NC(=O)[C@@H]2C[C@@H](O)CN2C(=O)C(C(C)C)n2cc(N3CCC4CCN(c5ccc6cc(-c7ccccc7O)nnc6c5)C4C3)nn2)cc1 (stereo partly shown)", "> 10 nM"),
    ("Cc1ncsc1-c1ccc([C@H](C)NC(=O)[C@@H]2C[C@@H](O)CN2C(=O)[C@@H](c2cc(N3CC4(CC(c5cc6nnc(-c7ccccc7O)cc6cc5Cl)C4)C3)no2)C(C)C)cc1", "> 10 nM"),
    ("Cc1ncsc1-c1ccc([C@H](C)NC(=O)[C@@H]2C[C@@H](O)CN2C(=O)[C@@H](c2cc(N3CCC4(CC3)CN(c3ccc5cc(-c6ccccc6O)nnc5c3)C4)no2)C(C)C)cc1", "> 10 nM"),
    ("Cc1ncsc1-c1ccc([C@H](C)NC(=O)[C@@H]2C[C@@H](O)CN2C(=O)[C@@H](c2cc(N3CCC[C@@H](c4ccc5cc(-c6ccccc6O)nnc5c4)C3)no2)C(C)C)cc1", "< 10 nM"),
]

**Query** Please look at this compound and report its DC50: Cc1ncsc1-c1ccc([C@H](C)NC(=O)[C@@H]2C[C@@H](O)CN2C(=O)C(C(C)C)n2cc(N3CCC(C4CN(c5ccc6cc(-c7ccccc7O)nnc6c5)C4)C3)nn2)cc1 (stereo partly shown)
**Result** > 10 nM

**Query** Please look at this compound and report its DC50: Cc1ncsc1-c1ccc([C@H](C)NC(=O)[C@@H]2C[C@@H](O)CN2C(=O)C(C(C)C)n2cc(N3CCN(CC4CCCN(c5ccc6cc(-c7ccccc7O)nnc6c5)C4)CC3)nn2)cc1 (stereo partly shown)
**Result** > 10 nM

* * *

Dmax overview
- SYSTEM: HiBit-BRG1 fusion protein in stable HeLa cell line expressing HiBit-BRG1 and LgBit (Homo sapiens, UniProt P51532)
- Construct: expressed in transfected cells
- MEASUREMENT NOTES: HiBiT-BRG1 cell-based degradation assay (Nano-Glo HiBiT, 24 h)
- CONDITION LABEL: HeLa HiBit-BRG1/LgBit cells, top dose 30 μM, read-out: BRG1 HiBit Degradation Maximum (%)

Please review the following examples before continuing.
# COMPOUND, MEASURED METRIC, TEST RESULT
rows = [
    ("C#Cc1cc(N2CC3(C2)CN(c2cc([C@H](C(=O)N4C[C@H](O)C[C@H]4C(=O)N[C@@H](C)c4ccc(-c5scnc5C)cc4)C(C)C)on2)C3)cc2nnc(-c3ccccc3O)cc12", "Dmax", "< 50%"),
    ("Cc1ncsc1-c1ccc([C@H](C)NC(=O)[C@@H]2C[C@@H](O)CN2C(=O)[C@@H](c2cc(N3C[C@]4(C)CN(c5ccc6nnc(-c7ccccc7O)cc6c5)C[C@]4(C)C3)no2)C(C)C)cc1", "Dmax", "> 75%"),
]

**Query** Please look at this compound and report its Dmax: Cc1ncsc1-c1ccc([C@H](C)NC(=O)[C@@H]2C[C@@H](O)CN2C(=O)[C@@H](c2cn(-c3ccc4nnc(-c5ccccc5O)cc4c3)nn2)C(C)C)cc1 (single isomer, unassigned)
**Result** > 75%

* * *

Dmax overview
- SYSTEM: HiBit-BRG1 fusion protein in stable HeLa cell line expressing HiBit-BRG1 and LgBit (Homo sapiens, UniProt P51532)
- Construct: expressed in transfected cells
- MEASUREMENT NOTES: HiBiT-BRG1 cell-based degradation assay (Nano-Glo HiBiT, 24 h)
- CONDITION LABEL: HeLa HiBit-BRG1/LgBit cells, top dose 30 μM, read-out: BRG1 HiBit Degradation Maximum (%)

Please review the following examples before continuing.
# MOLECULAR STRING, Dmax
rows = [
    ("C#Cc1ccc([C@H](C)NC(=O)[C@@H]2C[C@@H](O)CN2C(=O)[C@@H](c2cc(N3CC4(CN(c5ccc6cc(-c7ccccc7O)nnc6c5)C4)C3)no2)C(C)C)c(OC)c1", "< 50%"),
    ("Cc1ncsc1-c1ccc([C@H](C)NC(=O)[C@@H]2C[C@@H](O)CN2C(=O)[C@H](c2cc(-c3cnc(N4CC(c5cc6cc(-c7ccccc7O)nnc6cc5Cl)C4)nc3)no2)C(C)C)cc1", "< 50%"),
    ("Cc1ncsc1-c1ccc([C@H](C)NC(=O)[C@@H]2C[C@@H](O)CN2C(=O)[C@@H](c2cc(N3CC[C@H](c4ccc5cc(-c6ccccc6O)nnc5c4)C3)no2)C(C)C)cc1", "> 75%"),
    ("Cc1ncsc1-c1ccc([C@H](C)NC(=O)[C@@H]2C[C@@H](O)CN2C(=O)[C@@H](c2cc(N3CC4(CC(c5ccc6cc(-c7ccccc7O)nnc6c5)C4)C3)no2)C(C)C)cc1", "> 75%"),
]

**Query** Please look at this compound and report its Dmax: CC(C)[C@@H](C(=O)N1C[C@H](O)C[C@H]1C(=O)N[C@@H](C)c1ccc(F)cc1)n1cc(N2CC3(CN(c4ccc5cc(-c6ccccc6O)nnc5c4)C3)C2)nn1
**Result** > 50%

* * *

- SYSTEM: HiBiT-BRM fusion protein in stable HeLa cell line (Homo sapiens, UniProt P51531)
- Construct: expressed in transfected cells
- MEASUREMENT NOTES: HiBiT-BRM cell-based degradation assay (Nano-Glo HiBiT Lytic Detection, 24 h)
- Set-up: scale not given here
- CONDITION LABEL: HeLa HiBiT-BRM cells, read-out: BRM HiBit Degradation IC50
MEASURED METRIC: DC50

# MOLECULE, DC50
rows = [
    ("Cc1ncsc1-c1ccc([C@H](C)NC(=O)[C@@H]2C[C@@H](O)CN2C(=O)C(C(C)C)n2cc(N3C4CCC3CN(c3ccc5nnc(-c6ccccc6O)cc5c3)C4)nn2)cc1 (stereo partly drawn)", "< 10 nM"),
]

**Query** Please look at this molecule and report its DC50: Cc1ncsc1-c1ccc([C@H](C)NC(=O)[C@@H]2C[C@@H](O)CN2C(=O)C(C(C)C)n2cc(N3CCCC(CN4CCN(c5ccc6nnc(-c7ccccc7O)cc6c5)CC4)C3)nn2)cc1 (stereo partly drawn)
**Result** < 10 nM

**Query** Please look at this molecule and report its DC50: Cc1ncsc1-c1ccc([C@H](C)NC(=O)[C@@H]2C[C@@H](O)CN2C(=O)[C@H](C(C)C)n2cc(N3CCN4CCN(c5ccc6cc(-c7ccccc7O)nnc6c5)C[C@H]4C3)nn2)cc1
**Result** < 10 nM
